# tested_on: T1, 4-1BB human (human 4-1BB ECD-TEV-IgG1 hinge-CH2-CH3-10x His) (human)
# T1 construct: 4-1BB residues 24-186 fused to TEV site, IgG1 Fc and His tag; the entry is the whole fusion; also called soluble human 4-1BB-Fc
# experiment_notes: ELISA, coated 4-1BB-Fc
readout_type: binding result

v20029 (antibody, human IgG1, kappa, L234A L235A, V domains shown, Mouse-human chimera; also called 3E7) VH: QVQLQESGGGLVKPGGSRKLSCAASGFTFSEFGMHWVRQAPDKGLEWVAYISSGSSTIYYADTVKGRFTISRDNAKNTLFLQMTSLRSEDTAMYYCARDWVDYWGQGTALTVSS VL: NIVMTQSPKSMSMSVGERVTLSCKASENVGSYVSWYQQKPEKSPKLLIYGASNRYTGVPDRFTGSGSATDFTLTISSVQAEDLADYHCGQSYSYPLTFGAGTKLELKR
binds
v20036 (antibody, human IgG1, kappa, L234A L235A, V domains shown, Mouse-human chimera; also called 5G8; 5G8 mouse-human parental chimera) VH: QVQLQESGPGLVQPTQSLSITCTVSGFSLISYGVHWVRQSPGKGLEWLGVIWSGGSTDYNAAFISRLSISKDNSKSQVFFKMNSLQADDTAIYYCARNPLTATVMDYWGQGTSVTVSS VL: DIVMTQSQKFMSTSVGDRVSVTCKASQNVGTNVAWYQQKPGQSPKALIYSASYRDSGVPDRFTGSGSGTDFTLTISNVQSEDLAEYLCQQYNSYPLTFGAGTKLELKR
binds
v20037 (antibody, human IgG1, kappa, L234A L235A, V domains shown, Mouse-human chimera; also called 6B3) VH: QVQLKESGPGLVAPSQSLSITCTVSGFSLTSYAISWVRQPPGKGLEWLGVIWPGGGTNYNSALKSRLSISKDNSKSQVFLKMNSLQTDDTARYYCARGTGTWYFDVWGAGTTVTVSS VL: DIQMTQTTSSLSASLGDRVTISCSASQGISNYLNWYQQKPDGTVKLLIYYTSSLHSGVPSRFSGSGSGTDYSLTISNLEPEDIATYYCQQYSDLPWTFGGGTKLEIKR
binds

Hello, the source for this data is patent US20230052369A1, in case you need it.
